So I've got a bunch of molecules here, and I need their log10 Ki values.
target_or_test_system: Carbonic anhydrase (Helicobacter pylori (strain ATCC 700392 / 26695) (Campylobacterpylori), UniProt O24855)
Sequence (O24855 whole entry): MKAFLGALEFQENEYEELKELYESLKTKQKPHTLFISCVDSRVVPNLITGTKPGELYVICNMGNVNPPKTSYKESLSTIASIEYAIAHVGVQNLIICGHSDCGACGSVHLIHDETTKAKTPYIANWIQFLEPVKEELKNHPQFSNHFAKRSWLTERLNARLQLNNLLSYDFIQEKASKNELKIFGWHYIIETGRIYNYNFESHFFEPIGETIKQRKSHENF
Hey, these are logged values: log10 of Ki, nM being the unit before logging.

Some solved cases for reference:
CC(C)(C)c1ccc(S(=O)(=O)CCNc2ccc(S(N)(=O)=O)cc2)cc1	1.43
Nc1ccc(S(=O)(=O)NCCc2ccc(S(N)(=O)=O)cc2)cc1	2.06
NS(=O)(=O)c1ccc(C(=O)O)cc1 [CARZENIDE]	3.02
CC(C)(C)c1ccc(C(=O)Nc2nnc(S(N)(=O)=O)s2)cc1	1.11
Nc1ccc(S(N)(=O)=O)cc1I	2.71
CC(C)(C)c1ccc(C(=O)NCc2ccc(S(N)(=O)=O)cc2)cc1	1.79
CC(C)(C)c1ccc(C(=O)NCCc2ccc(S(N)(=O)=O)cc2)cc1	1.71
Nc1ccc(S(N)(=O)=O)cc1Cl	2.58

Provide log10 Ki for all items below, preserving their order.
1. Nc1nccc(Nc2ccc(S(N)(=O)=O)cc2)n1
2. Nc1ccc(S(=O)(=O)Nc2nnc(S(N)(=O)=O)s2)cc1
3. CC(C)(C)c1ccc(S(=O)(=O)Nc2ccc(S(N)(=O)=O)cc2)cc1
4. Cn1nc(S(N)(=O)=O)sc1=N

1.92
2.43
1.78
2.74

---

target_or_test_system: Carbonic anhydrase 1 (Homo sapiens, UniProt P00915)
Sequence (P00915 whole entry): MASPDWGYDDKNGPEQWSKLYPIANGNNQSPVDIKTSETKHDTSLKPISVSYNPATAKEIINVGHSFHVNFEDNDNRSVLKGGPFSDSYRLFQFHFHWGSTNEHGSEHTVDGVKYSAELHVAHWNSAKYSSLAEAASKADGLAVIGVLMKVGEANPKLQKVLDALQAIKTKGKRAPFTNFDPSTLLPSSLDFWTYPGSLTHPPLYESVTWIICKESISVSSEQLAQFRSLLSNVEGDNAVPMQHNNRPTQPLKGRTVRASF
pKi: −log10 of the molar value.
# cutoff 5 applies to pKi; >= gives 1, < gives 0

CC(C)(C)c1ccc(C(=O)Nc2nnc(S(N)(=O)=O)s2)cc1	1
CC(C)(C)c1ccc(S(=O)(=O)Nc2nnc(S(N)(=O)=O)s2)cc1	1
CC(C)(C)c1ccc(S(=O)(=O)Nc2ccccc2S(N)(=O)=O)cc1	0

# input for lookup
Does the molecule `CC(C)(C)c1ccc(C(=O)Nc2ccc(S(N)(=O)=O)cc2)cc1` have recorded pKi that is 5 or more?
0

---

target_or_test_system: Carbonic anhydrase (Helicobacter pylori (strain ATCC 700392 / 26695) (Campylobacterpylori))
metric: Ki (nM)
One number for each entry, in nM.

Provide Ki for all items below, preserving their order.
1. Cc1ccc(S(N)(=O)=O)cc1 [P-TOLUENESULFONAMIDE]
2. CCN[C@H]1CN(CCCOC)S(=O)(=O)c2sc(S(N)(=O)=O)cc21 [BRINZOLAMIDE]
3. CC(C)(C)c1ccc(C(=O)Nc2cccc(S(N)(=O)=O)c2)cc1
4. Nc1ccc(S(N)(=O)=O)cc1F

1. 450
2. 210
3. 316
4. 1230

Provide Ki for all items below, preserving their order.
1. CC(C)(C)c1ccc(S(=O)(=O)Nc2ccccc2S(N)(=O)=O)cc1
2. CC(C)(C)c1ccc(C(=O)Nc2ccc(S(N)(=O)=O)cc2)cc1
3. NS(=O)(=O)c1ccc(S(=O)(=O)Nc2cccc3c(Cl)c[nH]c23)cc1

[640, 79, 413]

Provide Ki for all items below, preserving their order.
1. CC(C)(C)c1ccc(S(=O)(=O)Nc2cccc(S(N)(=O)=O)c2)cc1
2. CC(C)(C)c1ccc(S(=O)(=O)CNc2ccc(S(N)(=O)=O)cc2)cc1
3. Nc1ccc(S(N)(=O)=O)cc1Br

[318, 31, 452]

---

A set of compounds tested on Carbonic anhydrase 1 (Homo sapiens, UniProt P00915), with measured Ki:
One number for each entry, in µM.

CC(C)(C)c1ccc(C(=O)Nc2ccccc2S(N)(=O)=O)cc1	12.3
CC(C)(C)c1ccc(C(=O)Nc2cccc(S(N)(=O)=O)c2)cc1	10.8
CC(C)(C)c1ccc(S(=O)(=O)CNc2ccc(S(N)(=O)=O)cc2)cc1	12.1
CC(C)(C)c1ccc(C(=O)NCCc2ccc(S(N)(=O)=O)cc2)cc1	12.4
CC(C)(C)c1ccc(S(=O)(=O)CCNc2ccc(S(N)(=O)=O)cc2)cc1	12
CC(C)(C)c1ccc(C(=O)NCc2ccc(S(N)(=O)=O)cc2)cc1	13.3
CC(C)(C)c1ccc(S(=O)(=O)Nc2cccc(S(N)(=O)=O)c2)cc1	9.62

Tell me the measured Ki of `CC(C)(C)c1ccc(S(=O)(=O)Nc2ccc(S(N)(=O)=O)cc2)cc1` , please.
13

---

target_or_test_system: Carbonic anhydrase (Helicobacter pylori (strain ATCC 700392 / 26695) (Campylobacterpylori), UniProt O24855)
So I've got a bunch of compounds here, and I need their pKi values.
One number for each entry, as −log10 of the molar value.

Some solved cases for reference:
Nc1ccc(S(=O)(=O)NCc2ccc(S(N)(=O)=O)cc2)cc1	6.88
NCc1ccc(S(N)(=O)=O)cc1 [MAFENIDE]	6.06
CC(C)(C)c1ccc(C(=O)Nc2ccccc2S(N)(=O)=O)cc1	6.27

Read the next record carefully.
Tell me the measured pKi of `CC(C)(C)c1ccc(S(=O)(=O)Nc2nnc(S(N)(=O)=O)s2)cc1` , please.
7.92
